TARGET_OR_TEST_SYSTEM: PmDAP IV (Pseudoxanthomonas mexicana)
Construct: gene dap4; M12I lies in the removed signal; no tag; 723 residues, 82-kDa; homodimer; crystal model Ala22-Pro745
ASSAY_INFO: Gly-Pro-MCA fluorescence hydrolysis inhibition; Ki by Cheng-Prusoff
Type: biochemical
Sequence (Q6F3I7 22-745): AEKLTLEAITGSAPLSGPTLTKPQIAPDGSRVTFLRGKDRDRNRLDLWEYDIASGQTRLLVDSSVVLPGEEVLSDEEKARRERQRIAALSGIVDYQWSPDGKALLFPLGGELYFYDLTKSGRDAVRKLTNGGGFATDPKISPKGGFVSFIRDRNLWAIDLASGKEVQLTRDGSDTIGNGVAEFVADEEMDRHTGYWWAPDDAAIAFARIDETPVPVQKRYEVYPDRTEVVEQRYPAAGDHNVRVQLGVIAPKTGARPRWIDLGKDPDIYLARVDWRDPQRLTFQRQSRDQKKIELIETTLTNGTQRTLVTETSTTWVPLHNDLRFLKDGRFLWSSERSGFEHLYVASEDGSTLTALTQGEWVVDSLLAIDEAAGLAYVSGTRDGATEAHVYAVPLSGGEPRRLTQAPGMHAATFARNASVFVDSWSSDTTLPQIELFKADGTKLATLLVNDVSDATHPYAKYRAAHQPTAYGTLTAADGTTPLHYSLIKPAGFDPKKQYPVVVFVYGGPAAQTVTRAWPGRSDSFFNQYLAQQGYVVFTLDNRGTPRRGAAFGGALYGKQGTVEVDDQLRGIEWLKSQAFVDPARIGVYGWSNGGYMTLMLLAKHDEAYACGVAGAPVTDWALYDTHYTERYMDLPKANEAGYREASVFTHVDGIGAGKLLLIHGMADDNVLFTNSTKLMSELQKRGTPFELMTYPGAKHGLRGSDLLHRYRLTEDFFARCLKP
Listed here: items and their measured Ki.
# value in µM; strip the unit string

The examples below pair each entry with its known result.
CHEMICAL_STRING	DISPLAY_UNIT	Ki
N#C[C@@H]1CCCN1C(=O)CNC12CC3CC(CC(O)(C3)C1)C2	µM	3.07
N#C[C@@H]1C[C@@H]2C[C@@H]2N1C(=O)[C@@H](N)C12CC3CC(CC(O)(C3)C1)C2	µM	1.85

Then this compound:
Exam item: Record N[C@@H](CC(=O)N1CCn2c(nnc2C(F)(F)F)C1)Cc1cc(F)c(F)cc1F : what is its Ki with PmDAP IV (Pseudoxanthomonas mexicana)?
Marked response: 4

* * *

Listed here: items and their measured pIC50.
TARGET_OR_TEST_SYSTEM: PmDAP IV (Pseudoxanthomonas mexicana, UniProt Q6F3I7)
Construct: M12I lies in the removed signal; no tag; 723 residues, 82-kDa; homodimer; crystal model Ala22-Pro745
ASSAY_INFO: biochemical
Sequence (Q6F3I7 22-745 limits assumed): as the sequence (Q6F3I7 22-745) above
In simple prose, pIC50 is minus the logarithm base ten of a concentration in moles per litre.

CHEMICAL_STRING	NUMERIC_READOUT
N[C@@H](CC(=O)N1CCn2c(nnc2C(F)(F)F)C1)Cc1cc(F)c(F)cc1F	4.61
Cc1cc2ncc(C(=O)NCC(C)(C)NCC(=O)N3CCC[C@H]3C#N)cn2n1	4.61
N#C[C@@H]1CCCN1C(=O)CNC12CC3CC(CC(O)(C3)C1)C2	4.73

Then this molecule:
Exam item: Find the recorded pIC50 belonging to N#C[C@@H]1C[C@@H]2C[C@@H]2N1C(=O)[C@@H](N)C12CC3CC(CC(O)(C3)C1)C2 and report it.
Marked response: 4.95

* * *

TARGET_OR_TEST_SYSTEM: PmDAP IV (Pseudoxanthomonas mexicana, UniProt Q6F3I7)
Construct: gene dap4; M12I lies in the removed signal; no tag; 723 residues, 82-kDa; homodimer; crystal model Ala22-Pro745
ASSAY_INFO: Gly-Pro-MCA fluorescence hydrolysis inhibition; Ki by Cheng-Prusoff
Assay type: biochemical
EXPERIMENTAL_SETUP: read-out: PmDAP IV / Ki
Listed here: items and their measured pKi.
In simple prose, pKi is minus the logarithm base ten of a concentration in moles per litre.

The examples below pair each entry with its known result.
COMPOUND	NUMERIC_READOUT
CS(=O)(=O)n1cc2c(n1)CN([C@H]1CO[C@H](c3cc(F)ccc3F)[C@@H](N)C1)C2 [Omarigliptin]	4.62
Cc1cc(N2CCN([C@@H]3CN[C@H](C(=O)N4CCSC4)C3)CC2)n(-c2ccccc2)n1 [Teneligliptin]	5.63
CC#CCn1c(N2CCC[C@@H](N)C2)nc2c1c(=O)n(Cc1nc(C)c3ccccc3n1)c(=O)n2C [Linagliptin]	4.52

Then this compound:
Exam item: Find the recorded pKi belonging to Cc1cc2ncc(C(=O)NCC(C)(C)NCC(=O)N3CCC[C@H]3C#N)cn2n1 [Anagliptin] and report it.
Marked response: 5.40

* * *

TARGET_OR_TEST_SYSTEM: PmDAP IV (Pseudoxanthomonas mexicana, UniProt Q6F3I7)
Construct: M12I lies in the removed signal; no tag; 723 residues, 82-kDa; homodimer; crystal model Ala22-Pro745
ASSAY_INFO: biochemical
READOUT_NAME: IC50

The examples below pair each entry with its known result.
CHEMICAL_STRING	RESULT
Cn1c(=O)cc(N2CCC[C@@H](N)C2)n(Cc2cc(F)ccc2C#N)c1=O	> 100 µM
CS(=O)(=O)n1cc2c(n1)CN([C@H]1CO[C@H](c3cc(F)ccc3F)[C@@H](N)C1)C2	> 100 µM

Exam item: Find the recorded IC50 belonging to CC#CCn1c(N2CCC[C@@H](N)C2)nc2c1c(=O)n(Cc1nc(C)c3ccccc3n1)c(=O)n2C and report it.
Marked response: > 100 µM
